Biological target: T1, Rb^P R621C (human, UniProt P06400 380-788, R621C)
T1 construct: also called variant 41
T1 sequence (looked up): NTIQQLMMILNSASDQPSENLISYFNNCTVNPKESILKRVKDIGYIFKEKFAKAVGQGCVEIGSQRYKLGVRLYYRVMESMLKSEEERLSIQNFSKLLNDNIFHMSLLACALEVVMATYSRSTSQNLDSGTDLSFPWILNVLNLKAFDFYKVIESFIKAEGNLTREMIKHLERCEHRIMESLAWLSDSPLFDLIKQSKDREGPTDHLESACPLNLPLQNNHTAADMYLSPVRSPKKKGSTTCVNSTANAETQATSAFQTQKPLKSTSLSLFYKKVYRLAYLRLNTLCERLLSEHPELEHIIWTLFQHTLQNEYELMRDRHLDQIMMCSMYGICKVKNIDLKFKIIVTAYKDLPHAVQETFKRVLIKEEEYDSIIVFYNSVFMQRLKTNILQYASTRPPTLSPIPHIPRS
Assay: fluorescence polarisation; 25 °C; unlabeled Rb^P titrated against 1.5 nM TMR-E2F1^TD or 7.5 nM TMR-E7^LxCxE; 25 mM Tris pH 8.0, 200 mM NaCl, 1 mM DTT, 0.1% Tween-20; 2 min incubation; quadratic fit; apparent Kd for the variants, Kd for WT
Settings: both partners purified
No end group written: not given here. TMR = tetramethyl rhodamine dye
Measured Kd, listed per entry.
State just the number; it will be interpreted in µM.

binder	Kd, µM
DLYCYEQLN (also: TMR label, position not given here, source: synthetic peptide, bought: GenScript) [TMR-E7^LxCxE, LxCxE peptide of the E7 oncoprotein from HPV]	0.012

Now consider a different binder.
## Task Consider the binder shown here: {TMR}-GEGIRDLFDCDFGDLTPLD (also called E2F^TD; source: synthetic peptide, bought: GenScript) [TMR-E2F1^TD, peptide of the E2F1 transactivation domain] What is its recorded Kd?
## Result 0.022
